Tested on: human β2 adrenergic receptor-T4-lyosome fusion protein (β2AR-T4L)
Test: Thermal stabilization (Tm) of β2AR-T4L in amphiphile, normalized peak ratio 341 nm/356 nm
Conditions: concentration not given; matches most favourable (*) Tm minus DDM 63.5
measurement-kind: ΔTm

Would you please look over these solved cases?
CCCCCCCCCCC(=O)NCC(CNC(=O)CCCCCCCCCC)(CO[C@H]1OC(CO)[C@H](O[C@@H]2OC(CO)[C@H](O)C(O)[C@H]2O)C(O)[C@H]1O)CO[C@H]1OC(CO)[C@H](O[C@@H]2OC(CO)[C@H](O)C(O)[C@H]2O)C(O)[C@H]1O (stereo partly drawn) [MNG-1] | +1.6
CCCCCCCCCCCC(CCCCCCCCCCC)(CO[C@H]1OC(CO)[C@H](O[C@@H]2OC(CO)[C@H](O)C(O)[C@H]2O)C(O)[C@H]1O)CO[C@H]1OC(CO)[C@H](O[C@@H]2OC(CO)[C@H](O)C(O)[C@H]2O)C(O)[C@H]1O (stereo partly drawn) [MNG-4] | +3.8
CCCCCCCCCCOCC(COCCCCCCCCCC)(CO[C@H]1OC(CO)[C@H](O[C@@H]2OC(CO)[C@H](O)C(O)[C@H]2O)C(O)[C@H]1O)CO[C@H]1OC(CO)[C@H](O[C@@H]2OC(CO)[C@H](O)C(O)[C@H]2O)C(O)[C@H]1O (stereo partly drawn) [MNG-6] | +3.6
CCCCCCCCCCOCCOC1OC(CO)C(OC2OC(CO)C(O)C(O)C2O)C(O)C1O (stereo not drawn) [MPA-11] | −4.7
CCCCCCCCCCC(=O)NCCOC1OC(CO)C(OC2OC(CO)C(O)C(O)C2O)C(O)C1O (stereo not drawn) [MPA-6] | −12.1

Input line: Which ΔTm reading was recorded for the molecule CCCCCCCCCCC(CCCCCCCCCC)(COC1OC(CO)C(OC2OC(CO)C(O)C(O)C2O)C(O)C1O)COC1OC(CO)C(OC2OC(CO)C(O)C(O)C2O)C(O)C1O (stereo not drawn) [MNG-14] ?
Output line: +4.9

###

System: R. capsulatus LHI-RC superassembly
Assay: R. capsulatus photosynthetic superassembly solubilization and purification assay (detergent classification)
Parameters: species or system Rhodobacter capsulatus
Details: words printed in the Classification column instead of a class: behaviour of the amphiphile
measurement-kind: Classification (entry in words)

CC(C)(C)c1ccc(OCC(COc2ccc(C(C)(C)C)cc2)(COC2OC(CO)C(O)C(O)C2O)COC2OC(CO)C(O)C(O)C2O)cc1 (stereo not shown) | aggregation
CC(C)(C)c1ccc(C(=O)NCC(CNC(=O)c2ccc(C(C)(C)C)cc2)(COC2OC(CO)C(O)C(O)C2O)COC2OC(CO)C(O)C(O)C2O)cc1 (stereo not shown) | aggregation

###

Test: Critical micelle concentration (CMC) by fluorescent dye uptake
Assay type: physicochemical
Output t for CMC (%) not less than 0.003%; output f otherwise.

OCC1OC(OCC(COC2OC(CO)C(O)C(O)C2O)(CSCCc2ccccc2)CSCCc2ccccc2)C(O)C(O)C1O (centres unmarked) | t
CCCCCCCCC(=O)NCC(CNC(=O)CCCCCCCC)(COC1OC(CO)C(OC2OC(CO)C(O)C(O)C2O)C(O)C1O)COC1OC(CO)C(OC2OC(CO)C(O)C(O)C2O)C(O)C1O (centres unmarked) | t
O=C(CCCCC1CCCCC1)NCC(CNC(=O)CCCCC1CCCCC1)(COC1OC(CO)C(OC2OC(CO)C(O)C(O)C2O)C(O)C1O)COC1OC(CO)C(OC2OC(CO)C(O)C(O)C2O)C(O)C1O (centres unmarked) | t
CCCCCCCCCCC(CCCCCCCCCC)(COC1OC(CO)C(OC2OC(CO)C(O)C(O)C2O)C(O)C1O)COC1OC(CO)C(OC2OC(CO)C(O)C(O)C2O)C(O)C1O (centres unmarked) | f
OCC1OC(OCC(COC2CCCCC2)(COC2CCCCC2)COC2OC(CO)C(O)C(O)C2O)C(O)C(O)C1O (centres unmarked) | t
CCCCCCCC(=O)NCC(CNC(=O)CCCCC1CCCCC1)(COC1OC(CO)C(OC2OC(CO)C(O)C(O)C2O)C(O)C1O)COC1OC(CO)C(OC2OC(CO)C(O)C(O)C2O)C(O)C1O (centres unmarked) | t

Input line: Quick check: does CCCCCCCCCCCC(CCCCCCCCCCC)(CO[C@H]1OC(CO)[C@H](O[C@@H]2OC(CO)[C@H](O)C(O)[C@H]2O)C(O)[C@H]1O)CO[C@H]1OC(CO)[C@H](O[C@@H]2OC(CO)[C@H](O)C(O)[C@H]2O)C(O)[C@H]1O (some centres unmarked) have CMC (%) greater than or equal to 0.003%?
Output line: f

Input line: Please indicate if the recorded CMC (%) for CCCCCCCOCC(COCCCCCCC)(COC1OC(CO)C(O)C(O)C1O)COC1OC(CO)C(O)C(O)C1O (centres unmarked) meets or exceeds 0.003%.
Output line: t

Input line: Exam item: decide whether the reported CMC (%) for O=C(CCc1cc(C(F)(F)F)cc(C(F)(F)F)c1)NCC(CNC(=O)CCc1cc(C(F)(F)F)cc(C(F)(F)F)c1)(COC1OC(CO)C(OC2OC(CO)C(O)C(O)C2O)C(O)C1O)COC1OC(CO)C(OC2OC(CO)C(O)C(O)C2O)C(O)C1O (centres unmarked) is at least 0.003%.
Output line: t

###

Test system: human β2 adrenergic receptor-T4-lyosome fusion protein (β2AR-T4L)
Test: Thermal stabilization (Tm) of β2AR-T4L in amphiphile, normalized peak ratio 341 nm/356 nm
Details: 10 × CMC; relative to DDM
measurement-kind: ΔTm

Worked examples, 5 compounds total:
CCCCCCCCCCC(=O)NCC(CNC(=O)CCCCCCCCCC)(CO[C@H]1OC(CO)[C@H](O[C@@H]2OC(CO)[C@H](O)C(O)[C@H]2O)C(O)[C@H]1O)CO[C@H]1OC(CO)[C@H](O[C@@H]2OC(CO)[C@H](O)C(O)[C@H]2O)C(O)[C@H]1O (stereo partly drawn) | +1.6
CCCCCCCCCCCC(CCCCCCCCCCC)(CO[C@H]1OC(CO)[C@H](O[C@@H]2OC(CO)[C@H](O)C(O)[C@H]2O)C(O)[C@H]1O)CO[C@H]1OC(CO)[C@H](O[C@@H]2OC(CO)[C@H](O)C(O)[C@H]2O)C(O)[C@H]1O (stereo partly drawn) | +0.6
CCCCCCCCCCOCC(COCCCCCCCCCC)(CO[C@H]1OC(CO)[C@H](O[C@@H]2OC(CO)[C@H](O)C(O)[C@H]2O)C(O)[C@H]1O)CO[C@H]1OC(CO)[C@H](O[C@@H]2OC(CO)[C@H](O)C(O)[C@H]2O)C(O)[C@H]1O (stereo partly drawn) | +1.1
CCCCCCCCCCOCCOC1OC(CO)C(OC2OC(CO)C(O)C(O)C2O)C(O)C1O (stereo not drawn) | −4.7
CCCCCCCCCCC(=O)NCCOC1OC(CO)C(OC2OC(CO)C(O)C(O)C2O)C(O)C1O (stereo not drawn) | −12.1

Continue with the compound presented below.
Input line: Would you kindly share the measured ΔTm for CCCCCCCCCCC(CCCCCCCCCC)(COC1OC(CO)C(OC2OC(CO)C(O)C(O)C2O)C(O)C1O)COC1OC(CO)C(OC2OC(CO)C(O)C(O)C2O)C(O)C1O (stereo not drawn) ?
Output line: +3.9

###

System: human β2 adrenergic receptor-T4-lyosome fusion protein (β2AR-T4L)
Experiment: Thermal stabilization (Tm) of β2AR-T4L in amphiphile, normalized peak ratio 341 nm/356 nm
Conditions: 50 × CMC; relative to DDM
measurement-kind: ΔTm

Examples from the recorded data:
CCCCCCCCCCC(=O)NCC(CNC(=O)CCCCCCCCCC)(CO[C@H]1OC(CO)[C@H](O[C@@H]2OC(CO)[C@H](O)C(O)[C@H]2O)C(O)[C@H]1O)CO[C@H]1OC(CO)[C@H](O[C@@H]2OC(CO)[C@H](O)C(O)[C@H]2O)C(O)[C@H]1O (some centres unmarked) | +2.1
CCCCCCCCCCOCCOC1OC(CO)C(OC2OC(CO)C(O)C(O)C2O)C(O)C1O (centres unmarked) | −4.7
CCCCCCCCCCC(CCCCCCCCCC)(COC1OC(CO)C(OC2OC(CO)C(O)C(O)C2O)C(O)C1O)COC1OC(CO)C(OC2OC(CO)C(O)C(O)C2O)C(O)C1O (centres unmarked) | +5.4
CCCCCCCCCCOCC(COCCCCCCCCCC)(CO[C@H]1OC(CO)[C@H](O[C@@H]2OC(CO)[C@H](O)C(O)[C@H]2O)C(O)[C@H]1O)CO[C@H]1OC(CO)[C@H](O[C@@H]2OC(CO)[C@H](O)C(O)[C@H]2O)C(O)[C@H]1O (some centres unmarked) | +4.1

Now examine the next entry.
Input line: Field request: ΔTm | item: CCCCCCCCCCCC(CCCCCCCCCCC)(CO[C@H]1OC(CO)[C@H](O[C@@H]2OC(CO)[C@H](O)C(O)[C@H]2O)C(O)[C@H]1O)CO[C@H]1OC(CO)[C@H](O[C@@H]2OC(CO)[C@H](O)C(O)[C@H]2O)C(O)[C@H]1O (some centres unmarked)
Output line: +4.3
